tested.on: B*0701 (Homo sapiens, UniProt P01889)
test.method.notes: biochemical
No end group written: not given here.
readout: pIC50
The meaning of pIC50 here: minus log10 of the concentration in molar units.

[ask] Query for B*0701 (Homo sapiens, UniProt P01889): what pIC50 does the record show for SPWLTPRCM [15.046] ?
[reply] 6.19

----------
tested.on: A*3301 (Homo sapiens, UniProt P04439, A270S/D185E/E176V/E277Q/E87N/F33T/G231S/H175R/I121M/I218V/I322F/K168Q/K210R/L300P/L318F/M331R/P217A/Q86R/Q94H/R138Q/T323A/T345S/T97I/V358M/Y195H)
test.method.notes: biochemical
Assay type: binding
No end group written: not given here.
Recorded IC50 by entry
All answers are understood in µM, so give the number only.

These recorded examples may help you get a feel for the data.
STAAALYWYR [Peptide 1587.32]    0.028
VIDSPAGQA [Peptide 78.0316]    0.913
LLFYSKVRK [Peptide 78.0298]    0.799
HLFGYSYYK [Peptide 76.0191]    3.47

[ask] What IC50 value was documented for this sequence, SVRKLVEDR [Peptide 9017.0105] ?
[reply] 0.187

[ask] Consider the sequence TTITVYAEPPR [Peptide 1556.07] and give its measured IC50.
[reply] 2.55

[ask] Find the recorded IC50 belonging to AQVLHVLKR [Peptide 88.0335] and report it.
[reply] 0.064

----------
tested.on: B*5101 (Homo sapiens, UniProt P01889, A329T/A93T/A95T/C349S/D138N/D201E/D98Y/E187L/E204Q/E69T/G107R/I218V/K202T/L105A/L119W/N104I/Q94N/R106L/R155S/R180L/S101N/S121T/S35A/S48A/V306I/V36M/Y195H/Y91F)
test.method.notes: HLA-B*5101 peptide binding (B7-like supertype)
No end group written: not given here.
Reported values of pIC50 for individual entries
The read-out pIC50 is expressed as -log10 of concentration in moles per litre.

IPIPMSWAF    6.24
LPGCMFSIF    7.28
IPFPSSWAF    7.80

Kindly consider the entry below.
[ask] Which measured pIC50 value corresponds to LPVCSFSIF ?
[reply] 7.89

----------
tested.on: DRB1*1101 (Homo sapiens, UniProt P01903+P01911, A100R/A169T/A87E/I96F/K41T/L162R/M171V/P40S/Q125H/Q178H/Q39Y/Q99D/R42S/S66Y/T262R/V115G/W38E)
test.method.notes: biochemical
condition.set: Binding affinity DRB1 *1101
readout: IC50

CC(C)C[C@H](NC(=O)[C@H](CC(=O)O)NC(=O)[C@@H](NC(=O)[C@@H](NC(=O)[C@H](CCC(=O)O)NC(=O)[C@@H]1CCCN1C(=O)[C@H](CCC(N)=O)NC(=O)[C@H](CC(C)C)NC(=O)[C@H](CC(=O)O)NC(=O)[C@@H](N)CC(C)C)[C@@H](C)O)[C@@H](C)O)C(=O)N[C@@H](Cc1ccc(O)cc1)C(=O)N[C@@H](CS)C(=O)N[C@@H](Cc1ccc(O)cc1)C(=O)N[C@@H](CCC(=O)O)C(=O)N[C@@H](CCC(N)=O)C(=O)O [Peptide 1543.04]    > 20 µM
CC[C@H](C)[C@H](NC(=O)[C@H](CO)NC(=O)[C@H](CO)NC(=O)[C@H](CC(=O)O)NC(=O)[C@H](C)NC(=O)[C@H](CC(N)=O)NC(=O)[C@@H](NC(=O)[C@H](Cc1ccc(O)cc1)NC(=O)[C@H](C)NC(=O)[C@@H](NC(=O)CN)C(C)C)[C@@H](C)CC)C(=O)N[C@@H](CCC(=O)O)C(=O)NCC(=O)N[C@@H](CC(N)=O)C(=O)N[C@@H](Cc1ccc(O)cc1)C(=O)O [Peptide 68.0110]    > 20 µM
CC[C@H](C)[C@H](NC(=O)[C@H](Cc1c[nH]c2ccccc12)NC(=O)[C@H](CCC(=O)O)NC(=O)[C@@H]1CCCN1)C(=O)N[C@@H](CCC(=O)O)C(=O)N[C@@H](CCCNC(=N)N)C(=O)N[C@@H](CCC(N)=O)C(=O)N[C@H](C(=O)N[C@H](C(=O)N[C@@H](CC(C)C)C(=O)N[C@@H](CCC(N)=O)C(=O)N[C@@H](Cc1c[nH]cn1)C(=O)N[C@@H](CO)C(=O)N[C@@H](Cc1ccccc1)C(=O)N[C@@H](CC(N)=O)C(=O)O)C(C)C)[C@@H](C)O [Peptide 89.0049]    0.401 µM
CC[C@H](C)[C@H](NC(=O)[C@H](CO)NC(=O)[C@H](CC(C)C)NC(=O)[C@@H](NC(=O)[C@H](CC(C)C)NC(=O)[C@@H](N)CC(=O)O)C(C)C)C(=O)N[C@@H](C)C(=O)N[C@@H](CC(C)C)C(=O)N[C@@H](CO)C(=O)N[C@H](C(=O)NCC(=O)N[C@@H](CS)C(=O)N[C@H](C(=O)NCC(=O)N[C@@H](C)C(=O)O)[C@@H](C)O)C(C)C [Peptide 68.0002]    > 20 µM

We now examine a further compound.
[ask] So what's the measured IC50 for this one? CC[C@H](C)[C@H](NC(=O)[C@H](CO)NC(=O)[C@H](CO)NC(=O)[C@H](CC(=O)O)NC(=O)[C@H](C)NC(=O)[C@H](CC(N)=O)NC(=O)[C@@H](NC(=O)[C@H](Cc1ccc(O)cc1)NC(=O)[C@H](C)NC(=O)[C@@H](N)C(C)C)[C@@H](C)CC)C(=O)N[C@@H](CCC(=O)O)C(=O)NCC(=O)N[C@@H](CC(N)=O)C(=O)N[C@@H](Cc1ccc(O)cc1)C(=O)N[C@H](C(=O)O)[C@@H](C)O [Peptide 68.0177]
[reply] > 20 µM
